These entries and their values trace back to patent US20110028447A1.

The entries below are paired with their reported Ki.
target: human CB1 receptor (Homo sapiens); assay: Human CB1 receptor binding, [3H] CP-55,940 displacement on HEK cell membranes; set-up: expressed in transfected cells; host or cells: HEK cells, doxycycline-induced; membrane preparation; settings: read-out: CB1 Ki
The reply should contain only the number, in nM.

Known results for compounds:
compound="CC(C)(C)[C@H](NC(=O)c1nn(Cc2ccc(C#N)cc2)c2c(F)cccc12)C(=O)NCCNS(=O)(=O)C1CC1 [Example 115]" endpoint_name=Ki test_result=1.09
compound="CC(C)(C)[C@H](NC(=O)c1nn(Cc2ccc(F)cc2)c2ccccc12)C(=O)NCCS(=O)(=O)NCC1CC1 [Example 400]" endpoint_name=Ki test_result=12.3
compound="CC(C)NC(=O)OC1CCN(C(=O)[C@@H](NC(=O)c2nn(Cc3ccc(F)cc3)c3ccccc23)C(C)(C)C)CC1 [Example 302]" endpoint_name=Ki test_result=5.41

Field: next compound
(Q) Dear colleague, I am looking for the recorded Ki of the following compound: CC(C)(C)C(NC(=O)c1nn(Cc2ccc(C#N)cc2F)c2ccccc12)c1nnc(NC(=O)C2CC2)o1 (stereo not drawn) [Example 88]
(A) 15.4

* * *

target: human CB1 receptor (Homo sapiens); test: [35S] GTPγS binding on membranes of CHO cells expressing the human CB1 receptor (agonism); format: biochemical; parameters: expressed in transfected cells; membrane preparation; settings: GTPγS EC50, human CB1, CHO cell membranes
pEC50: −log10 of the molar value.
Everything with pEC50 lower than 8 is 0.0; everything else, including exactly 8, is 1.0.

(Q) // inclusive: pEC50 at least 8? input: CC(C)(C)C(NC(=O)c1nn(Cc2ccc(F)cc2)c2ccccc12)C(=O)NC1(CO)CC1 (stereo not drawn)
(A) 0.0

(Q) Threshold query (pEC50 >= 8) on `CC(C)(C)[C@H](NC(=O)c1nn(Cc2ccc(F)cc2)c2ccccc12)C(=O)NCCC#N`
(A) 0.0

(Q) Hello, I need to know if CC(C)(C)C(NC(=O)c1nn(Cc2ccc(F)cc2)c2c(Cl)cccc12)C(=O)NC1CC1 (stereo not drawn) has measured pEC50 not below 8. Thanks!
(A) 1.0

(Q) Has `CC(C)(C)[C@H](NC(=O)c1nn(Cc2ccc(F)cc2)c2ccccc12)C(=O)N1CCC(CO)CC1` a recorded pEC50 greater than or equal to 8?
(A) 1.0

* * *

biological target: human CB1 receptor (Homo sapiens, UniProt P21554); test: Human CB1 receptor binding, [3H] CP-55,940 displacement on HEK cell membranes; set-up: expressed in transfected cells; host or cells: HEK cells, doxycycline-induced; membrane preparation; details: CB1 Ki
Sequence (P21554 whole entry): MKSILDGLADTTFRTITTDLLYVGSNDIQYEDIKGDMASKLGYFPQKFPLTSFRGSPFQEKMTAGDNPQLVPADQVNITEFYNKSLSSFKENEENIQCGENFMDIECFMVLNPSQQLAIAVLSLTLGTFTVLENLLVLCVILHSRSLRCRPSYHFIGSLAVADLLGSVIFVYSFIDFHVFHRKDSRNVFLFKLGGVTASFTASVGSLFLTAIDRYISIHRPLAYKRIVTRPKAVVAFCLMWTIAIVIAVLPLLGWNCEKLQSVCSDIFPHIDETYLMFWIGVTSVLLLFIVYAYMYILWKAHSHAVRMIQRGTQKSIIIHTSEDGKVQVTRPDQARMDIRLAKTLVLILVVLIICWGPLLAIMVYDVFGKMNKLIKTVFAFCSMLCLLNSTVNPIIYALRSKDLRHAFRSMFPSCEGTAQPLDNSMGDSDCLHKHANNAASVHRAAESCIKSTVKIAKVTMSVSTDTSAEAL
pKi: −log10 of the molar value.
Below is a list of entries, each paired with its recorded pKi value.

Below, each entry is followed by its recorded pKi result.
compound=CC(C)(C)[C@@H](NC(=O)c1nn(Cc2ccc(C#N)cc2)c2ccccc12)C(N)=O tested_on="human CB1 receptor (Homo sapiens, UniProt P21554)" test_result="< 6.40"
compound=COc1cc(C#N)ccc1Cn1nc(C(=O)N[C@H](C(=O)NCCS(N)(=O)=O)C(C)(C)C)c2ccccc21 tested_on="human CB1 receptor (Homo sapiens, UniProt P21554)" test_result="< 6.40"

(Q) State the recorded pKi for this entry: CC(C)(C)[C@H](NC(=O)c1nn(Cc2ccc(C#N)cc2)c2cc(F)ccc12)C(=O)NCC1CCC(=O)N1 (stereo partly drawn)
(A) < 6.40
